>  <molecule>
Cc1ncccc1-c1nc(C)c2nnc3ccc(F)cc3n12 [Example 12]

>  <melting point>
207 to 210 °C

$$$$
>  <molecule>
Cc1nc(-c2cc(Cl)ccc2Cl)n2c1nnc1ccc(-c3cc(Cl)ccc3Cl)cc12

>  <melting point>
190 to 193 °C

$$$$
>  <molecule>
COc1ccc2nnc3c(C)nc(-c4cc(Cl)ccc4Cl)n3c2c1 [Example 5]

>  <melting point>
165 to 168 °C

$$$$
>  <molecule>
Cc1nc(-c2ccccc2C(N)=O)n2c1nnc1ccc(Cl)cc12 [Example 41]

>  <melting point>
249 to 251 °C

$$$$
>  <molecule>
Cc1nc(-c2cccc(Cl)c2Cl)n2c1nnc1ccc(F)cc12 [Example 14]

>  <melting point>
193 to 196 °C

$$$$
>  <molecule>
Cc1nc(-c2cc(C(F)(F)F)ccc2F)n2c1nnc1ccc(F)cc12 [Example 21]

>  <melting point>
176 to 179 °C

$$$$
